assay: small-molecule microarray binders of probe aCHRDL2, primary screen, biochemical, biotinylated probe, 635/667 nm fluorescence (AID 1100); details: higher = more signal
QUANTITY MEASURED: composite z-score

>>> reported_value("CCOC(=O)C[C@H]1[C@H](OC(=O)c2cc3ccccc3oc2=O)[C@@H](NC(=O)c2ccc3ccccc3c2)c2cc(OCCCO)ccc2N1C(=O)Cc1ccc(OC)cc1")
-0.0886
>>> reported_value("COc1cc(NN2C(C(O)c3cc(OC)c(OC)c(OC)c3)C=CC3C(=O)N(c4ccccc4)C(=O)C32)cc(OC)c1OC (configuration not stated)")
0.561
>>> reported_value("CCOC(=O)C1=C[C@@H](C(C)(C)C)N(S(=O)(=O)c2ccc(C)cc2)[C@H]1c1ccc(C)cc1")
0.517
>>> reported_value("CCCCCCCCCCC(O)C1C=CC2C(=O)N(C)C(=O)C2N1Nc1cc(OC)c(OC)c(OC)c1 (configuration not stated)")
0.858
>>> reported_value("CCCC=C(CCC)[C@@H](NS(=O)(=O)c1cccc2cccnc12)c1ccc(-c2ccccc2)cc1")
0.75
>>> reported_value("Cc1c(NC(=O)/C(C#N)=C/c2ccccc2Cl)c(=O)n(-c2ccccc2)n1C")
-0.0592
>>> reported_value("CCCNC(=O)[C@@]1(Sc2ccc(C)cc2)CC(=O)N(C2CCCCC2)[C@@H]1c1ccc(CO)cc1I")
0.91
>>> reported_value("COC(=O)[C@@]1(Cc2ccc(OC)cc2)[C@H]2c3cc(C(=O)N4CCCC4)n(Cc4cc(C)n(C)n4)c3C[C@H]2CN1C(=O)c1ccccc1")
1.17
>>> reported_value("COc1cc2c(cc1O)C(c1ccc(CN3CCCC3)cc1)N(C)CC2 (configuration not stated)")
-0.275
>>> reported_value("CCOC(=O)C1=C[C@@H](c2ccccc2)N(S(=O)(=O)c2ccc(C)cc2)[C@H]1c1ccccc1")
0.753
>>> reported_value("COC(=O)C1=CC(CCCO)=CC(c2ccc(CN3CCCC3)cc2)N(Cc2cc3c(cc2Br)OCO3)C=C1C(=O)OC (configuration not stated)")
0.986
>>> reported_value("CC(C)(C)OC(=O)CC[C@]12N=C(c3ccc(OCCCO)cc3)O[C@H]1c1ccccc1N(Cc1ccccc1)C2=O")
0.462
>>> reported_value("CCOC(=O)C1=CCC(c2ccco2)N(S(=O)(=O)c2ccc(C)cc2)C1 (configuration not stated)")
-0.0042
>>> reported_value("COc1cc(NN2C(C(O)c3ccc(I)cc3)C=CC3C(=O)N(c4ccccc4)C(=O)C32)cc(OC)c1OC (configuration not stated)")
1.04
>>> reported_value("Cc1ccc(C(C)CC(O)C2C=CC3C(=O)N(c4ccccc4)C(=O)C3N2Nc2ccc(C#N)cc2)o1 (configuration not stated)")
0.539
>>> reported_value("NC(=O)[C@H]1[C@@H]2C(=O)O[C@@H](c3ccccc3)[C@@H](c3ccccc3)N2[C@@H](c2ccc(O)cc2)[C@]12C(=O)Nc1ccccc12")
0.561
>>> reported_value("C=C(CCCC)C(=O)CC[C@H](OC(C)=O)c1ccc(OCCO)cc1")
0.0984

###

molecular target: Torsin-1A-interacting protein 2 (Homo sapiens) (UniProt Q8NFQ8); assay: LULL1 binders on small-molecule microarray, primary screen, cell lysate, human LULL1 lysate, 635/667 nm fluorescence (AID 1092); settings: hLULL1 lysate binding, 635 nm fluorescence, higher = more signal;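 note: probe is lysate of COS7 cells overexpressing human LULL1; score merges per-feature 667 nm fluorescence with signal-to-noise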
Sequence (Q8NFQ8 whole entry, looked up): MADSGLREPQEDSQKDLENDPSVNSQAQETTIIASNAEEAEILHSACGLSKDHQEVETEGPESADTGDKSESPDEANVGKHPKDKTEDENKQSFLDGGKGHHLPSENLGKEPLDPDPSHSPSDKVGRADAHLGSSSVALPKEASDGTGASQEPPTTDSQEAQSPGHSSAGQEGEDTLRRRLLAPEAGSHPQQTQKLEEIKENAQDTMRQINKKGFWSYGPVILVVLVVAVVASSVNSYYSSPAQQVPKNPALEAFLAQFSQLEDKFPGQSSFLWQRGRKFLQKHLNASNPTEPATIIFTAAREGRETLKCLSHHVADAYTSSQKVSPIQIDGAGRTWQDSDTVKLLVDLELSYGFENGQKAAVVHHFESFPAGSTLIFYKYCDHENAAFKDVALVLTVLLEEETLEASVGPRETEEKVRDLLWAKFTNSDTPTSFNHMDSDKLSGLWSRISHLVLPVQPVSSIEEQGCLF
QUANTITY MEASURED: composite z-score

>>> reported_value("O=C(CS)NCCCCCCNC(=O)[C@@H]1C[C@@H]2C(=O)NCC(=O)N2[C@@H]1c1ccc(O)cc1")
2.92
>>> reported_value("CCOC(=O)C[C@H]1[C@H](OC(=O)c2ccc(-c3ccccc3)cc2)[C@@H](NC(=O)Cc2ccc(OC)cc2)c2cc(OCCCO)ccc2N1C(=O)Cc1ccc(OC)cc1")
1.55
>>> reported_value("O=C1C2C=CC(C(O)c3ccco3)N(Nc3ccccc3)C2C(=O)N1c1ccccc1 (stereo not drawn)")
1.13
>>> reported_value("CCCCCCCCCCC(O)C1C=CC2C(=O)N(c3ccccc3)C(=O)C2N1Nc1ccccc1F (stereo not drawn)")
1.59
>>> reported_value("CCCCCCCCCCC(O)C1C=CC2C(=O)N(C)C(=O)C2N1Nc1cc(OC)c(OC)c(OC)c1 (stereo not drawn)")
1.54
>>> reported_value("CCCC=C(CCC)[C@@H](NC(=O)CCc1ccccc1)c1ccc(C(F)(F)F)cc1")
3.4
>>> reported_value("COC(=O)c1c2oc(c1C(=O)OC)C(=O)N1CCC[C@H]1Cn1nncc1CN(Cc1ccccc1)C(=O)N[C@H](CO)CC2")
0.983
>>> reported_value("NC(=O)[C@H]1[C@@H]2C(=O)O[C@@H](c3ccccc3)[C@@H](c3ccccc3)N2[C@@H](c2ccc(O)cc2)[C@]12C(=O)Nc1ccccc12")
2.99
